- test-system: human CD40 expressed on cells (Ramos, T24, Hs 766T, Capan-2) (human, UniProt P25942 21-277)
- Sequence (P25942 21-277): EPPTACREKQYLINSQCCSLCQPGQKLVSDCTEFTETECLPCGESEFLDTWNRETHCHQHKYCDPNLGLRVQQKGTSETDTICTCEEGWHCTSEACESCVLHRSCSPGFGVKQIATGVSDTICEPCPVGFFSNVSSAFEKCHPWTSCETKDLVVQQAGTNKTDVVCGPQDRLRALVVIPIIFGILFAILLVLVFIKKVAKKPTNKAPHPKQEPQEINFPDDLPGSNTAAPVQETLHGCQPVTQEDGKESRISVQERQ
- experiment: cell-based or functional assay
property-label: CD95 expression enhancing activity in Ramos cells, reduction against IgG2

Please review the following examples before continuing.
binder	result
2105 antibody, constant region converted into IgG4 (antibody, V domains shown) VH: EVQLVESGGGLVQPGRSLRLSCAASGFTFDDYAMHWVRQAPGKGLEWVSGISWNSGSLVHADSVKGRFTISRDNAKNSLYLQMNSLRAEDTALYYCARDRLFRGVRYYGMDVWGQGTTVTVSS VL: EIVLTQSPATLSLSPGERATLSCRASQSVSSYLAWYQQKPGQAPRLLIYDASNRATGIPARFSGSGSGTDFTLTISSLEPEDFAVYYCQQRSHWLTFGGGTKVEIK	≥ 10%
2105 antibody, constant region converted into IgG1 (antibody, V domains shown) VH: EVQLVESGGGLVQPGRSLRLSCAASGFTFDDYAMHWVRQAPGKGLEWVSGISWNSGSLVHADSVKGRFTISRDNAKNSLYLQMNSLRAEDTALYYCARDRLFRGVRYYGMDVWGQGTTVTVSS VL: EIVLTQSPATLSLSPGERATLSCRASQSVSSYLAWYQQKPGQAPRLLIYDASNRATGIPARFSGSGSGTDFTLTISSLEPEDFAVYYCQQRSHWLTFGGGTKVEIK	≥ 10%

Shift focus to the following entry.
Query: Which measured CD95 expression enhancing activity in Ramos cells, reduction against IgG2 value corresponds to KM341-1-19 antibody, constant region converted into IgG1 (antibody, V domains shown) VH: QVQLQQSGPGLVKPSQTLSLTCAISGDSVSSNSATWNWIRQSPSRDLEWLGRTYYRSKWYRDYVGSVKSRIIINPDTSNNQFSLQLNSVTPEDTAIYYCTRAQWLGGDYPYYYSMDVWGQGTTVTVSS VL: EIVLTQSPATLSLSPGERATLSCRASQSVSSYLAWYQQKPGQAPRLLIYDASNRATGIPARFSGSGSGTDFTLTISSLEPEDFAVYYCQQRSNTFGPGTKVDIK ?
Response: ≥ 10%
